Listing: activity coefficient of selected molecules
assay notes: activity coefficient (dimensionless); of the first substance listed, at infinite dilution; xn = mol fraction of the nth substance listed
test context: 322.45 K; 101 kPa; Liquid; Chromatography; x1 = 0

Please review the following examples before continuing.
- molecule: "CC(C)O [propan-2-ol] + CCn1cc[n+](C)c1.CS(=O)(=O)[O-]"
  activity coefficient: 0.907
- molecule: "CCC[N+](=O)[O-] [1-nitropropane] + CCn1cc[n+](C)c1.CS(=O)(=O)[O-]"
  activity coefficient: 2.7
- molecule: "CCO [ethanol] + CCn1cc[n+](C)c1.CS(=O)(=O)[O-]"
  activity coefficient: 0.418

Which activity coefficient reading was recorded for the molecule CCCCCCCCCCCCC [tridecane] + CCn1cc[n+](C)c1.CS(=O)(=O)[O-] ? 3280

Which activity coefficient reading was recorded for the molecule ClCCl [dichloromethane] + CCn1cc[n+](C)c1.CS(=O)(=O)[O-] ? 0.531

====

assay notes: activity coefficient (dimensionless); of the first substance listed, at infinite dilution; xn = mol fraction of the nth substance listed
test context: 322.55 K; 101 kPa; Liquid; Chromatography; x1 = 0
Listing: activity coefficient of selected molecules
// no unit, no text: just the number

Please review the following examples before continuing.
- molecule: "CCc1ccccc1 [ethylbenzene] + CCCCn1cc[n+](C)c1.O=S(=O)([N-]S(=O)(=O)C(F)(F)C(F)(F)F)C(F)(F)C(F)(F)F"
  recorded result: 2.04
- molecule: "Cc1cccc(C)c1 [1,3-dimethylbenzene] + CCCCn1cc[n+](C)c1.O=S(=O)([N-]S(=O)(=O)C(F)(F)C(F)(F)F)C(F)(F)C(F)(F)F"
  recorded result: 2.02
- molecule: "C1CCCCCC1 [cycloheptane] + CCCCn1cc[n+](C)c1.O=S(=O)([N-]S(=O)(=O)C(F)(F)C(F)(F)F)C(F)(F)C(F)(F)F"
  recorded result: 19.8
- molecule: "C[N+](=O)[O-] [nitromethane] + CCCCn1cc[n+](C)c1.O=S(=O)([N-]S(=O)(=O)C(F)(F)C(F)(F)F)C(F)(F)C(F)(F)F"
  recorded result: 0.625

Which activity coefficient reading was recorded for the molecule CCC[N+](=O)[O-] [1-nitropropane] + CCCCn1cc[n+](C)c1.O=S(=O)([N-]S(=O)(=O)C(F)(F)C(F)(F)F)C(F)(F)C(F)(F)F ? 0.769

Which activity coefficient reading was recorded for the molecule CC(C)CC(C)(C)C [2,2,4-trimethylpentane] + CCCCn1cc[n+](C)c1.O=S(=O)([N-]S(=O)(=O)C(F)(F)C(F)(F)F)C(F)(F)C(F)(F)F ? 13.3

Which activity coefficient reading was recorded for the molecule C#CCCCCC [1-heptyne] + CCCCn1cc[n+](C)c1.O=S(=O)([N-]S(=O)(=O)C(F)(F)C(F)(F)F)C(F)(F)C(F)(F)F ? 3.91

Which activity coefficient reading was recorded for the molecule CC(C)O [propan-2-ol] + CCCCn1cc[n+](C)c1.O=S(=O)([N-]S(=O)(=O)C(F)(F)C(F)(F)F)C(F)(F)C(F)(F)F ? 1.77

====

assay notes: activity coefficient (dimensionless); of the first substance listed, at infinite dilution; xn = mol fraction of the nth substance listed
test context: 322.45 K; 101 kPa; Liquid; Chromatography; x1 = 0
If the reported activity coefficient equals or exceeds 1, assign Met. If not, assign Not met.

- compound: "ClC(Cl)(Cl)Cl [tetrachloromethane] + CCn1cc[n+](C)c1.CS(=O)(=O)[O-]"
  class name: "Met"
- compound: "C=O [methanal] + CCn1cc[n+](C)c1.CS(=O)(=O)[O-]"
  class name: "Not met"
- compound: "CCCC(C)=O [pentan-2-one] + CCn1cc[n+](C)c1.CS(=O)(=O)[O-]"
  class name: "Met"
- compound: "ClC(Cl)Cl [trichloromethane] + CCn1cc[n+](C)c1.CS(=O)(=O)[O-]"
  class name: "Not met"
- compound: "C[N+](=O)[O-] [nitromethane] + CCn1cc[n+](C)c1.CS(=O)(=O)[O-]"
  class name: "Met"

Would you say CCC=O [propanal] + CCn1cc[n+](C)c1.CS(=O)(=O)[O-] shows activity coefficient at minimum 1? Met

Would you say CO [methanol] + CCn1cc[n+](C)c1.CS(=O)(=O)[O-] shows activity coefficient at minimum 1? Not met

Would you say CCCO [propan-1-ol] + CCn1cc[n+](C)c1.CS(=O)(=O)[O-] shows activity coefficient at minimum 1? Not met
